All values here come from patent US12605397B2.

System: U87-MG cells
Protocol Text: Survival assay (MTT), U87-MG
Condition Parameters: 72 hours, MTT; up to 100 μM
Parameter Measured: cytotoxicity to U87-MG cells (cell survival)

>>> measured_value("CC(=O)OCc1cn([C@H]2C[C@H](O)[C@@H](CO)O2)c(=O)[nH]c1=O")
"unable to survive"
>>> measured_value("Nc1nc(=O)n([C@H]2C[C@H](O)[C@@H](COP(=O)(O)OP(=O)(O)OP(=O)(O)O)O2)cc1CO")
"cytotoxic"
>>> measured_value("COCc1cn([C@H]2C[C@H](O)[C@@H](CO)O2)c(=O)[nH]c1=O")
"unable to survive"
>>> measured_value("Nc1nc(=O)n([C@H]2C[C@H](O)[C@@H](COP(=O)(O)OP(=O)(O)OP(=O)(O)O)O2)cc1C=O")
"cytotoxic"

* * *

Test system: HAP1 cells
Protocol Text: Survival assay (MTT), HAP1
Format: cell-based, human
Condition Parameters: HAP1, Chronic Myelogenous Leukemia (CML); 72 hours, MTT
Parameter Measured: IC50

>>> measured_value("Nc1nc(=O)n([C@H]2C[C@H](O)[C@@H](CO)O2)cc1CO [2d5hmC, 5-hydroxymethyl-2′-deoxycytidine]")
"> 3.03 µM"
